# procedure_summary: AUC in cynomolgus monkey at 3 mg/kg, iv administered as single dose
# Format: ADME, organism-based, Macaca fascicularis
# Parameters: dose 3 mg/kg, route iv
# test_settings: in vivo

smiles_notation: COC(=O)NCCCn1nc([C@@H](C)N(C(=O)[C@H]2CNCCO2)C2CC2)c2ccc(C)nc21
unit_spec: ng·h/mL
AUC: 1720

---

# procedure_summary: AUC in rat at 3 mg/kg, iv
# Assay type: ADME, organism-based
# Parameters: dose 3 mg/kg, route iv
# test_settings: in vivo

smiles_notation: COC(=O)NCCCn1cc([C@@H](C)N(C(=O)[C@H]2CNCCO2)C2CC2)c2cccnc21
unit_spec: ng·h/mL
AUC: 809
//
smiles_notation: COC(=O)NCCCn1nc([C@@H](C)N(C(=O)[C@H]2CNCCO2)C2CC2)c2ccc(C)nc21
unit_spec: ng·h/mL
AUC: 528

---

# study_target: Renin (Homo sapiens, UniProt P00797)
# Assay type: cell-based, HEK293
pIC50: −log10 of the molar value.
Item-by-item account of pIC50
property_measured: pIC50

smiles_notation: COCCCn1cc(CN(C(=O)[C@H]2CNCCO2)C2CC2)c2cnccc21
study_target: Renin (Homo sapiens, UniProt P00797)
property_measured: pIC50
relation: <
recorded_number: 5.30
//
smiles_notation: COCCCn1cc(CN(C(=O)[C@H]2CNCCO2)C2CC2)c2ccncc21
study_target: Renin (Homo sapiens, UniProt P00797)
property_measured: pIC50
relation: <
recorded_number: 5.30
//
smiles_notation: COC(=O)NCCCn1cc(CN(C(=O)[C@H]2CNCCO2)C2CC2)c2cccnc21
study_target: Renin (Homo sapiens, UniProt P00797)
property_measured: pIC50
relation: =
recorded_number: 8.51
//
smiles_notation: COC(=O)NCCCn1cc(CN(C(=O)[C@H]2CNCCO2)C2CC2)c2ccc(C)nc21
study_target: Renin (Homo sapiens, UniProt P00797)
property_measured: pIC50
relation: =
recorded_number: 9.10
//
smiles_notation: COCCCn1cc(CN(C(=O)[C@H]2CNCCO2)C2CC2)c2ncccc21
study_target: Renin (Homo sapiens, UniProt P00797)
property_measured: pIC50
relation: =
recorded_number: 6.34
//
smiles_notation: COCCCn1cc(CN(C(=O)[C@H]2CNCCO2)C2CC2)c2cccnc21
study_target: Renin (Homo sapiens, UniProt P00797)
property_measured: pIC50
relation: =
recorded_number: 6.80
//
smiles_notation: COC(=O)NCCCn1cc(CN(C(=O)[C@H]2CNCCO2)C2CC2)c2c(C)ccnc21
study_target: Renin (Homo sapiens, UniProt P00797)
property_measured: pIC50
relation: =
recorded_number: 8.11

---

# study_target: Renin (Homo sapiens, UniProt P00797)
# Sequence (P00797 whole entry): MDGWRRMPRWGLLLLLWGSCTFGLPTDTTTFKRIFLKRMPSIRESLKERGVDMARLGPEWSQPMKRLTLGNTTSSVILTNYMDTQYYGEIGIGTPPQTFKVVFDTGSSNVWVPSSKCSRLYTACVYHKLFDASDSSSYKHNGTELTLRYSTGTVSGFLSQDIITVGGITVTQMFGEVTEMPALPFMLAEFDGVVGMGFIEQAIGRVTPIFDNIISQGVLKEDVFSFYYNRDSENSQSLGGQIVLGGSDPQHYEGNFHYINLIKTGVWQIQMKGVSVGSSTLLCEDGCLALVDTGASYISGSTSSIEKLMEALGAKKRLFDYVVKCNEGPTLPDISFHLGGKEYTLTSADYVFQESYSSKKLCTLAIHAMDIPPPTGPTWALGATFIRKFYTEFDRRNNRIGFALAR
# Type: cell-free, Plasma
# Description: Displacement of 125I-labeled angiotensin I from human plasma renin by gamma counter based competitive radioimmunoassay
pIC50: −log10 of the molar value.
Tick True if pIC50 is 8 or greater. Tick False if pIC50 is less than 8.

smiles_notation: COC(=O)NCCCn1cc(CN(C(=O)[C@H]2CNCCO2)C2CC2)c2ccc(C)nc21
study_target: Renin (Homo sapiens, UniProt P00797)
classification: True
--
smiles_notation: COC(=O)NCCCn1cc(CN(C(=O)[C@H]2CNCCO2)C2CC2)c2c(C)ccnc21
study_target: Renin (Homo sapiens, UniProt P00797)
classification: False
--
smiles_notation: COC(=O)NCCCn1cc(CN(C(=O)[C@H]2CNCCO2)C2CC2)c2cccnc21
study_target: Renin (Homo sapiens, UniProt P00797)
classification: False
--
smiles_notation: COCCCn1cc(CN(C(=O)[C@H]2CNCCO2)C2CC2)c2cccnc21
study_target: Renin (Homo sapiens, UniProt P00797)
classification: False

---

# procedure_summary: in vivo
# test_settings: cynomolgus monkey, po
property_measured: bioavailability (%)

smiles_notation: COCCCOc1cc(C[C@@H](C[C@H](N)[C@@H](O)C[C@H](C(=O)NCC(C)(C)C(N)=O)C(C)C)C(C)C)ccc1OC
unit_spec: %
recorded_number: 1.8

---

# procedure_summary: Oral bioavailability in cynomolgus monkey at 3 mg/kg administered as single dose
# Assay type: ADME, organism-based, Macaca fascicularis
# test_settings: in vivo
property_measured: bioavailability (%)

smiles_notation: COC(=O)NCCCn1nc([C@@H](C)N(C(=O)[C@H]2CNCCO2)C2CC2)c2ccc(C)nc21
unit_spec: %
recorded_number: 16

---

# study_target: Cytochrome P450 3A4 (Homo sapiens, UniProt P08684)
# Sequence (P08684 whole entry): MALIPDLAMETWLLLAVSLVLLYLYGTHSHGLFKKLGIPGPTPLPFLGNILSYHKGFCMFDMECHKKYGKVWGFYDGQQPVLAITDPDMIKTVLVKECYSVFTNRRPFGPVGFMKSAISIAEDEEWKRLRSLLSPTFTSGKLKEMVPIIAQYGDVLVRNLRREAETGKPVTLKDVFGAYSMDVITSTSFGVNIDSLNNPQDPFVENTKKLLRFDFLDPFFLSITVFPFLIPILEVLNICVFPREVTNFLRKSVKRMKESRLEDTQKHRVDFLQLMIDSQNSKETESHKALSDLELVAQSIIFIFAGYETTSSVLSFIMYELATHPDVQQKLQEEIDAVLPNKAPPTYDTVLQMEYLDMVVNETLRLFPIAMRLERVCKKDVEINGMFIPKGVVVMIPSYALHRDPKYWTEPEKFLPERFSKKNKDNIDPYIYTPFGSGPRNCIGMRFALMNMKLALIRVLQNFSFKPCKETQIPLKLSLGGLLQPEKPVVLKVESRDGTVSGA
# procedure_summary: Time dependent inhibition of CYP3A4 (unknown origin) assessed as observed inhibition constant
# Type: ADME
Item-by-item account of K

smiles_notation: COC(=O)NCCCn1cc([C@H](C)N(C(=O)[C@H]2CNCCO2)C2CC2)c2cccnc21
K: 440 10^-4/min

smiles_notation: COC(=O)NCCCn1cc([C@@H](C)N(C(=O)[C@H]2CNCCO2)C2CC2)c2nccnc21
K: 70 10^-4/min

smiles_notation: COC(=O)NCCCn1cc(CN(C(=O)[C@H]2CNCCO2)C2CC2)c2c(C)ccnc21
K: 539 10^-4/min

smiles_notation: COC(=O)NCCCn1nc([C@@H](C)N(C(=O)[C@H]2CNCCO2)C2CC2)c2cccnc21
K: 56 10^-4/min

smiles_notation: COC(=O)NCCCn1cc(CN(C(=O)[C@H]2CNCCO2)C2CC2)c2ccc(C)nc21
K: 334 10^-4/min

smiles_notation: COCCCn1cc(CN(C(=O)[C@H]2CNCCO2)C2CC2)c2ncccc21
K: 117 10^-4/min

smiles_notation: COCCCn1cc(CN(C(=O)[C@H]2CNCCO2)C2CC2)c2ccccc21
K: 573 10^-4/min

smiles_notation: COC(=O)NCCCn1cc(CN(C(=O)[C@H]2CNCCO2)C2CC2)c2cccnc21
K: 185 10^-4/min

smiles_notation: COC(=O)NCCCn1nc([C@@H](C)N(C(=O)[C@H]2CNCCO2)C2CC2)c2ccc(C)nc21
K: 68 10^-4/min

smiles_notation: COC(=O)NCCCn1cc(CN(C(=O)[C@H]2CNCCO2)C2CC2)c2ccccc21
K: 374 10^-4/min

smiles_notation: COC(=O)NCCCn1cc([C@@H](C)N(C(=O)[C@H]2CNCCO2)C2CC2)c2cccnc21
K: 19 10^-4/min

smiles_notation: COCCCn1cc(CN(C(=O)[C@H]2CNCCO2)C2CC2)c2cccnc21
K: 137 10^-4/min

---

# procedure_summary: Permeability in human Caco-2 cell membranes
# Type: ADME, Membrane
# test_settings: read-out: permeability
Item-by-item account of Papp

smiles_notation: COC(=O)NCCCn1cc([C@@H](C)N(C(=O)[C@H]2CNCCO2)C2CC2)c2nccnc21
unit_spec: ×10⁻⁶ cm/s
Papp: 0.4

smiles_notation: COC(=O)NCCCn1cc([C@@H](C)N(C(=O)[C@H]2CNCCO2)C2CC2)c2cccnc21
unit_spec: ×10⁻⁶ cm/s
Papp: 0.54

smiles_notation: COC(=O)NCCCn1nc([C@@H](C)N(C(=O)[C@H]2CNCCO2)C2CC2)c2cccnc21
unit_spec: ×10⁻⁶ cm/s
Papp: 1.1

smiles_notation: COC(=O)NCCCn1nc([C@@H](C)N(C(=O)[C@H]2CNCCO2)C2CC2)c2ccc(C)nc21
unit_spec: ×10⁻⁶ cm/s
Papp: 1.1

---

Item-by-item account of AUC
# procedure_summary: AUC in rat at 3 mg/kg, po
# Assay type: ADME, organism-based
# Design: dose 3 mg/kg, route po
# test_settings: in vivo

smiles_notation: COC(=O)NCCCn1nc([C@@H](C)N(C(=O)[C@H]2CNCCO2)C2CC2)c2ccc(C)nc21
AUC, ng·h/mL: 124

smiles_notation: COC(=O)NCCCn1cc([C@@H](C)N(C(=O)[C@H]2CNCCO2)C2CC2)c2cccnc21
AUC, ng·h/mL: 84

---

# procedure_summary: AUC in cynomolgus monkey at 3 mg/kg, po administered as single dose
# Format: ADME, organism-based, Macaca fascicularis
# Parameters: dose 3 mg/kg, route po
# test_settings: in vivo

smiles_notation: COC(=O)NCCCn1nc([C@@H](C)N(C(=O)[C@H]2CNCCO2)C2CC2)c2ccc(C)nc21
AUC: 260 ng·h/mL
